Each recorded value in this set is attributed to patent US20210130452A1.

- TARGET OR SYSTEM: T1, human IL-17A (human, UniProt Q16552 24-155, biotinylated with Sulfo-NHS-LC-Biotin in the AlphaScreen assays only)
- T1 construct: also called hIL-17A; recombinant human IL-17A
- T1 sequence (Q16552 other isoform, or with tags, fused parts or gaps): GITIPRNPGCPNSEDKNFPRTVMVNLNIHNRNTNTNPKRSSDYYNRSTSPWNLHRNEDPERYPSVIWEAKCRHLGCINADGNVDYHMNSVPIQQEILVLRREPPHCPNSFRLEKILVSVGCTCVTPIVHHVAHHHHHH
- ASSAY NOTES: SPR Biacore, hIL-17A on chip; periplasmic extract (*); NB = no binding
QUANTITY MEASURED: binding result

07B09 (VHH, Class 3 Nanobody (anti-IL-17F); not shown: c-myc, His6 tag) VHH: EVQLVESGGGLVQAGGSLRLSCGASGGTFSSYATGWFRQAPGKEREFVAVLRWSDGHTAYADSVKGRFTISRDGAKNTMYLQMSSLKPEDTAIYYCTTATRPGEWDYWGQGTQVTVSS : no binding
12A09 (VHH, Class 3 Nanobody (anti-IL-17F); not shown: c-myc, His6 tag) VHH: EVQLVESGGGLVQPGGSLRLSCAASGFTFSSYRMAWVRQAPGKGLEWVSSTSTGGEMTNYADSVKGRFTISRDNAKNTLHLQMNSLKPEDTALYYCAAGTSAGHWSTGGQGTQVTVSS : no binding
07B11 (VHH, Class 3 Nanobody (anti-IL-17F); not shown: c-myc, His6 tag) VHH: EVQLVESGGGLVQAGGSLRLSCVASGRAFSSYVMGWFRQAPGMEREFVALIRWSDGITGYVDSVKGRFTISRDNAKNTVYLQMNSLKPEDTAVYYCAAAVRPGDYDYWGQGTQVTVSS : no binding
